Experiment: Octanol-water partition coefficient, logD of the compound at pH 11 by HPLC analysis
Type: physicochemical
Conditions: read-out: logD
Recorded measurements of logD, one per entry
Answer as a number with no unit attached.

Previously resolved entries follow.
[[record]]
compound = "CN(C)C(=O)Cc1ccc2ccn(C)c2c1"
endpoint_name = "logD"
measured_value = 1.7

[[record]]
compound = "Cn1c(NC(=O)c2cccnc2)cc2ccccc21"
endpoint_name = "logD"
measured_value = -0.1

[[record]]
compound = "O=C(NCCc1c[nH]c2ccccc12)c1ccc2ccc(C(=O)c3ccccc3)c-2cc1"
endpoint_name = "logD"
measured_value = 4.3

[[record]]
compound = "CN(C)C(=O)c1cn(C)c2ccccc12"
endpoint_name = "logD"
measured_value = 1.3

[[record]]
compound = "CN(C)C(=O)Cc1ccc2ccccc2c1"
endpoint_name = "logD"
measured_value = 2.4

[[record]]
compound = "CN1CCN(C(=O)c2ccc3ccc(C(=O)c4ccccc4)c-3cc2)CC1"
endpoint_name = "logD"
measured_value = 1.2

[[record]]
compound = "CN1CCN(C(=O)c2ccc3[nH]cc(C(=O)c4ccccc4)c3c2)CC1"
endpoint_name = "logD"
measured_value = 1.3

[[record]]
compound = "O=C(NCCc1cnc[nH]1)C1=CC2C(C(=O)c3ccccc3)=CN=C2C=C1 (stereo not given)"
endpoint_name = "logD"
measured_value = 0.8


Ask | Form field: reported logD of COC(=O)c1ccc2c(c1)c(C(=O)c1ccccc1)cn2C(=O)c1ccccc1
Reply | 5.2

Ask | So what's the measured logD for this one? O=C(NCCc1c[nH]c2ccccc12)c1ccc2[nH]cc(C(=O)c3ccccc3)c2c1
Reply | 2.8

Ask | Value lookup for logD; key = COC(=O)c1ccc2c(C(=O)c3ccccc3)c[nH]c2c1
Reply | 2.7

Ask | Name the reported logD value associated with the compound CN(C)C(=O)Cc1ccc2cccc-2cc1
Reply | 2.2

Ask | Need logD, item Cn1cc(C(=O)c2ccccc2)c2cc(C(=O)NCCO)ccc21
Reply | 1.6

Ask | logD lookup needed for O=C(NCc1cccnc1)c1ccc2[nH]cc(C(=O)c3ccccc3)c2c1 , thanks.
Reply | 0.8

Ask | # lookup: logD of NC(=O)C1CCN(C(=O)c2ccc3cccccc2-3)CC1
Reply | 0.6

Ask | Which logD value is on record for Cn1cc(C(=O)c2ccccc2)c2cc(C(=O)NCCc3cnc[nH]3)ccc21 ?
Reply | 1.5
